The reported numbers originate from patent US20220098240A1.

Target: T1, human integrin αvβ5 (human, UniProt P06756 31-992; P18084 24-719)
T1 construct: soluble analyte in SPR at 30, 100, 300 and 1,000 nM in HEPES buffer with 5 mM magnesium chloride; heterodimer of an alpha and a beta chain
T1 sequence (P06756 31-992, chain 1 of 2): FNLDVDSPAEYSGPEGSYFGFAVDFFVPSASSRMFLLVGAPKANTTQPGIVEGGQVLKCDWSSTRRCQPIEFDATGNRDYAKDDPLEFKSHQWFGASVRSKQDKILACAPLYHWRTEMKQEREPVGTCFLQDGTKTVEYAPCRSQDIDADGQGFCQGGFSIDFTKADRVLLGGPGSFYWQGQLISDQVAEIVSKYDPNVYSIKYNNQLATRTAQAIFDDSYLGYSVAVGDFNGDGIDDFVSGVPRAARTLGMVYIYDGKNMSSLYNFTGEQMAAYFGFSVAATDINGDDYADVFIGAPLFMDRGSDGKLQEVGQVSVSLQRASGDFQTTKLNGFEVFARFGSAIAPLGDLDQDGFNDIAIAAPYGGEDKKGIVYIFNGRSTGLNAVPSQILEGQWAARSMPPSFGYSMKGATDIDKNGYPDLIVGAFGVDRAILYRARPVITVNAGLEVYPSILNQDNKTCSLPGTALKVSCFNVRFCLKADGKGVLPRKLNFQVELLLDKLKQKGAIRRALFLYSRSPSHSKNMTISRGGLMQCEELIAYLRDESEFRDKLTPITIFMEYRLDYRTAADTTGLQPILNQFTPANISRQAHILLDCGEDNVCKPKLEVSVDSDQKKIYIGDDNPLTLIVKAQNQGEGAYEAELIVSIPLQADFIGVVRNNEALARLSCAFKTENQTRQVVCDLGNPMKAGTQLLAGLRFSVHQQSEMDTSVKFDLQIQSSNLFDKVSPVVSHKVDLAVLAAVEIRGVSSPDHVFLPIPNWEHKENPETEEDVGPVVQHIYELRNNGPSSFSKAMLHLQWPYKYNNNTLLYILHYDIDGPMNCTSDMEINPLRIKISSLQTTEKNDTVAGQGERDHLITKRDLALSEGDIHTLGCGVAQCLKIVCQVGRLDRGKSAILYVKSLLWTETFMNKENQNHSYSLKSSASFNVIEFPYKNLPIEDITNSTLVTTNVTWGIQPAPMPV
T1 sequence (P18084 24-719, chain 2 of 2): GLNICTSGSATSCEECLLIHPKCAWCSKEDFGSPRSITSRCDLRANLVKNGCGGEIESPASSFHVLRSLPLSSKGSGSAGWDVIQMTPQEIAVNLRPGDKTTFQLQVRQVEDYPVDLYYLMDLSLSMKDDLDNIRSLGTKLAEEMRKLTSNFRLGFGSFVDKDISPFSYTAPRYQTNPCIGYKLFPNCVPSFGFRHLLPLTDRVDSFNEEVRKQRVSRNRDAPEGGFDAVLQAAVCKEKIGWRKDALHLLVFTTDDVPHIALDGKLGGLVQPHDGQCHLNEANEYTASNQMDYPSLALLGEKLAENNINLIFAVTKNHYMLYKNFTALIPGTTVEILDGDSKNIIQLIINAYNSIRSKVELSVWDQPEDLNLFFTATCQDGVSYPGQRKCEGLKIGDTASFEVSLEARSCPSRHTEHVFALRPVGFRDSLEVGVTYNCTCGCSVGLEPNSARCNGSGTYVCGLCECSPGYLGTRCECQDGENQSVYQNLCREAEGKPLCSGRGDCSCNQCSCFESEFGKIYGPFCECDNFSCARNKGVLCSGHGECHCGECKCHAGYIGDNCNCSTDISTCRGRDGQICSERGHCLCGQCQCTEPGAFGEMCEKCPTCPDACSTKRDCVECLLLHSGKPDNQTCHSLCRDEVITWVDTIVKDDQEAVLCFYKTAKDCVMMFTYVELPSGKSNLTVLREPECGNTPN
Assay: SPR, Biacore 3000, peptide immobilised on CM5 chip, integrin 30-1000 nM flowed; grade A = dissociation constant 50 nM or less
Bridge positions count the residues as written; N and C are the ends. Square brackets hold non-standard residues; d marks the D form. Ends that are not written are not given here. COCH2 = acetyl group that carries the bridge; hCys = N[C@@H](CCS)C(=O)O; Dab = NCC[C@H](N)C(=O)O
metric: dissociation constant (KD)

binder	dissociation constant (KD)
XCRGDXFCKKK (not fully specified; thioether: I1 alpha-NH2 through acetyl to C8; thioether: C2 to K(acetyl)6, bicyclic; all residues L; immobilised on CM5 chip through amino groups) [Cyclic peptide 12]	≤ 50 nM
{CH2CO}-ICRGDK(COCH2)F[hCys]KKK (thioether 2-6 via Ac; thioether N-8; not fully specified, bicyclic; all residues L; immobilised on CM5 chip through amino groups) [Cyclic peptide 18]	≤ 50 nM

Can you share its dissociation constant (KD)? I mean this binder: {CH2CO}-ICRGD[Dab](COCH2)FCKKK (thioether 2-6 via Ac; thioether N-8, bicyclic; all residues L; immobilised on CM5 chip through amino groups) [Cyclic peptide 8]
≤ 50 nM
